I'd be grateful if you could share measured viability for these entries.
- Experimental Details: reducers of endogenous Her2 protein level, primary screen, SKBR3 breast tumor cells, AlphaScreen, ATP viability (AID 461);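 also: percent of carrier control wells set as 100% viability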
- Condition: 18-24 h, measured here: SKBR3 viability, ATP luminescence, at 10 µM

query: Sample O=c1[nH]c(N2CCc3ccccc32)nc2c1CCCC2 — what was its viability?
result: 125%

query: Quick check: viability of CCOc1c(C)cc2[nH]c(CCC(=O)O)nc2c1C ?
result: 123%

query: Looking for the measured viability of O=C(NCc1cccnc1)C1CCCN(S(=O)(=O)c2ccc(Cl)cc2)C1 (centres undefined) , can you help?
result: 102%

query: viability lookup needed for CCOC(=O)N1CCN(C(=O)CSc2nnc(-c3cc(OC)cc(OC)c3)o2)CC1 , thanks.
result: 86.5%

query: Could you tell me which viability is on file for O=C(CNc1ccc(Oc2ccccc2)cc1)N1CCOCC1 ?
result: 92.5%

query: Reported viability for COc1ccc(OC)c(C(=O)c2nc3c(n2O)CCCCC3)c1 : what is it?
result: 78.5%

query: What does the record list as viability for O=S1(=O)CC(N2CCOCC2)c2ccccc21 (centres undefined) ?
result: 95%

query: Requested field: viability. Item: C/C(N)=C(/C#N)C(=O)COC(=O)COc1ccc(Cl)cc1
result: 93%

query: Look up viability for this molecule: O=C(CCS(=O)(=O)c1cc(Br)cc2c1N(C(=O)C1CC1)CC2)NCC1CCCO1 (centres undefined)
result: 122%

query: Return reported viability; argument: COc1ccc(-c2noc(-c3ccccc3C(=O)NCc3ccco3)n2)cc1
result: 93%

query: Given the entry CC(=O)Nc1ccc(S(=O)(=O)N2CCC(NC(C)=O)(c3cccc(F)c3)CC2)cc1 , report its measured viability.
result: 89%

query: Entry CCOC(=O)C1CCN(S(=O)(=O)c2cc(Cl)c(C)cc2OC)CC1 : reported viability = ?
result: 90%

query: Please look up its viability: CC(C)CCNC(=O)NC(=O)CSc1nnc(COc2ccccc2Cl)o1
result: 99%

query: Quick one: viability of CN(C)S(=O)(=O)c1ccc(/C(O)=C2/C(=O)C(=O)N(CCN3CCCCC3)C2c2cccnc2)cc1 (centres undefined) ?
result: 87%

query: Suppose we examine the molecule O=C(O)c1ccc2c(c1)N(Cc1ccccc1F)C(=O)c1ccccc1S2=O (centres undefined) ; what viability value has been reported?
result: 96%

query: Look at this molecule and give its reported viability. CCN(CC)c1ccc(NC(=O)CN2CCN(CC(=O)Nc3ccccc3F)CC2)cc1
result: 81.5%

query: Quick one: viability for CC(=O)OCC(=O)[C@@]1(O)[C@H](C)C[C@H]2[C@@H]3CCC4=CC(=O)C=C[C@]4(C)[C@@]3(F)[C@@H](O)C[C@@]21C ?
result: 118%

query: Which viability reading was recorded for the molecule CC(C)(C)OC(=O)N1CCC(C(=O)N2CCCCCC2)CC1 ?
result: 94%

query: Returns the measured viability for the input molecule. Input: O=C(CS(=O)CC(=O)Nc1cccc2c1CCCC2)Nc1ccc(F)cc1 (centres undefined)
result: 114%

query: Please look up its viability: C[C@@H]1C[C@H]2[C@@H]3CCC4=CC(=O)C=C[C@]4(C)[C@@]3(F)[C@@H](O)C[C@]2(C)[C@H]1C(=O)CO
result: 84%

query: Item under review: CCOc1cc(-c2nc(-c3ccc(C)nc3OCC)no2)cc(OCC)c1OCC . Reported viability?
result: 91.5%

query: Data request, read-out viability, for OCc1nc(CO)n(Cc2ccccc2)n1
result: 85.5%

query: Data request, read-out viability, for CC[N+](C)(C)Cc1ccccc1Br
result: 102%

query: For the molecule shown here, CCOc1ccc(Cl)cc1S(=O)(=O)N1CCCC1 , give the reported viability.
result: 100%

query: Consider the molecule O=C(CSc1ncccn1)c1ccccc1Br and give its measured viability.
result: 120%

query: Param item = CCCCN(C)CCCNC(=O)CC1Oc2ccccc2NC1=O (centres undefined) ; retrieve measured viability.
result: 86.5%

query: # get_value(readout='viability', item= COc1cc(NC(=O)C2CC(c3cccc(OC)c3OC)=NO2)cc(OC)c1OC (centres undefined) )
result: 83%

query: Param item = COc1ccc2c(-c3cccnc3)cc(=O)[nH]c2c1 ; retrieve measured viability.
result: 116%

query: Reported viability, molecule CC(=O)N1C(=O)C2(C(C#N)=C(N)Oc3cc(C)oc(=O)c32)c2ccccc21 (centres undefined) : ____
result: 95.5%

query: Bench note: what viability did CC(C)Cn1c(N)c(C(=O)COC(=O)c2ccc3c(c2)OCCO3)c(=O)n(C)c1=O show?
result: 87%

query: Form field: reported viability of CCOC(=O)C1CCN(c2c(N(C)Cc3ccco3)c(=O)c2=O)CC1
result: 78%

query: Give its viability value. Item: CCN(CC)CCCN1C(=O)C(=O)/C(=C(/O)c2ccccc2)C1c1ccccn1 (centres undefined)
result: 96.5%

query: // viability lookup, key: CCN(CC)CCN1C(=O)C(O)=C(C(=O)c2cccs2)C1c1ccccn1 (centres undefined)
result: 86%

query: Look at this molecule and give its reported viability. O=C(NCc1ccco1)C1(S(=O)(=O)c2ccc(Cl)cc2)CC1
result: 94%

query: Please look up its viability: O=C(CSc1nc2ccsc2c(=O)n1NC(=O)c1ccccc1)Nc1nccs1
result: 105%

query: Reported viability, molecule Cc1cc(C)c2c(n1)nn1c(C3CC3)cc(C(F)(F)F)nc21 : ____
result: 106%

query: Query (molecule): Cc1ccc(-c2noc(CCC(=O)NCCc3ccccc3Cl)n2)cc1 ; field requested: viability
result: 77.5%

query: Which measured viability value corresponds to c1ccc2nc(-c3nc4ccccc4[nH]3)ccc2c1 ?
result: 104%

query: What value of viability has been reported for the following molecule? O=C(NCC(=O)N(c1cnc2ccccc2c1)C(C(=O)NC1CCCC1)c1ccncc1)c1ccco1 (centres undefined)
result: 86%

query: Can you look up the measured viability of O=C(NCC1CCCO1)C1CCCN(Cc2cnn(-c3ccccc3)c2-n2cccc2)C1 (centres undefined) for me?
result: 83.5%

query: Look up viability: COc1ccc(NC(=O)CS(=O)CC(=O)Nc2cc(Cl)ccc2OC)cc1 (centres undefined)
result: 91.5%

query: # query: viability of entry CCOC(=O)c1ccc(N2C(=O)CC(N(C)CCc3ccc(OC)c(OC)c3)C2=O)cc1 (centres undefined)
result: 102%

query: GET /values?readout=viability&item= C=CCn1c(SCC(=O)c2ccc(OC)cc2)nnc1C(C)NC(=O)c1cccs1 (centres undefined)
result: 102%

query: What value of measured viability is listed for Cc1nc2sc(C#N)c(N)c2c2c1CCCC2 ?
result: 95.5%

Where do these numbers come from? They come from PubChem BioAssay.
